test_system: 5-HT2A receptor (Homo sapiens, UniProt P28223)
Construct: purchased PerkinElmer
Sequence (P28223 whole entry): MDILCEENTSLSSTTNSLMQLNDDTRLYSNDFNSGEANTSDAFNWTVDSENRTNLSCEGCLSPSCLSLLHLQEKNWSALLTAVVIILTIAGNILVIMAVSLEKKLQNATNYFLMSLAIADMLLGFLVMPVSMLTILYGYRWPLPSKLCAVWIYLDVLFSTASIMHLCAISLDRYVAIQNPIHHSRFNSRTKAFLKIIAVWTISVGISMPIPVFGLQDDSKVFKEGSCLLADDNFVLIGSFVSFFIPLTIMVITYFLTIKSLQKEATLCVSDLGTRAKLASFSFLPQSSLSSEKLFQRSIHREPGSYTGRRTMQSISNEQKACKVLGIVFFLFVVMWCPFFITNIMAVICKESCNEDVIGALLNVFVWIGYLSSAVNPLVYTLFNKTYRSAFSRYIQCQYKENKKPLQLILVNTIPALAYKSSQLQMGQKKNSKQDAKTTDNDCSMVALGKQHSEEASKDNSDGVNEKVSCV
protocol_text: Radioligand binding assay, serotoninergic 5-HT2A receptors
condition_description: binding assay result in %, Table 5a
Measured inhibition at 1 µM, listed per entry.

# compound, units_label, inhibition at 1 µM
records = [
    ("O=S(=O)(NC1CCN(CCCc2noc3cc(F)ccc23)C1)c1ccc2cc(Cl)ccc2c1 (centres unmarked) [Compound 23]", "%", 99),
    ("O=S(=O)(NCC1CN(CCOc2cccc3ccccc23)C1)c1cc2ccc(Cl)cc2s1 [Compound 164]", "%", 102),
    ("O=S(=O)(NC1CCN(CCCc2noc3cc(F)ccc23)CC1)c1ccc(-c2ccccc2)cc1 [Compound 327]", "%", 94),
    ("O=S(=O)(NCC1CN(CCOc2cccc3c2OCCO3)C1)c1csc2ccccc12 [Compound 190]", "%", 68),
    ("COc1cccc(S(=O)(=O)NCC2CCN(CCCc3noc4cc(F)ccc34)C2)c1 (centres unmarked) [Compound 250]", "%", 87),
    ("O=S(=O)(NCC1CCN(CCOc2nsc3ccccc23)C1)c1cccc(O)c1 (centres unmarked) [Compound 43]", "%", 81),
    ("Cn1ccc2cc(S(=O)(=O)NCC3CN(CCCc4noc5cc(F)ccc45)C3)ccc21 [Compound 150]", "%", 85),
    ("O=S(=O)(NCC1CN(CCOc2cccc3c2OCCO3)C1)c1ccc(Cl)c(Cl)c1 [Compound 183]", "%", 94),
]
